Tested on: MAP kinase cascade activation
Assay: Reporter activity reflecting MAP kinase cascade activation, corrected using an internal control (Elk1-GAL4 luciferase reporter in 293-EBNA cells)
Assay type: cell-based, human
Settings: 50 ng/well expression plasmid; 293-EBNA cells; 24 hours
Entries and their measured Reporter activity corrected with internal control, as a factor of null vector (S/B value) follow.
Just the number, please, no unit after it.

28 (protein, listed as Homo sapiens) MTSFEDADTEETVTCLQMTVYHPGQLQCGIFQSISFNREKLPSSEVVKFGRNSNICHYTFQDKQVSRVQFSLQLFKKFNSSVLSFEIKNMSKKTNLIVDSRELGYLNKMDLPYRCMVRFGEYQFLMEKEDGESLEFFETQFILSPRSLLQENNWPPHRPIPEYGTYSLCSSQSSSPTEMDENES
2.3

# query: Reporter activity corrected with internal control, as a factor of null vector (S/B value) of entry 12 (protein, listed as Homo sapiens) MDHHQPGTGRYQVLLNEEDNSESSAIEQPPTSNPAPQIVQAASSAPALETDSSPPPYSSITVEVPTTSDTEVYGEFYPVPPPYSVATSLPTYDEAEKAKAAAMAAAAAETSQRIQEEECPPRDDFSDADQLRVGNDGIFMLAFFMAFIFNWLGFCLSFCITNTIAGRYGAICGFGLSLIKWILIVRFSDYFTGYFNGQYWLWWIFLVLGLLLFFRGFVNYLKVRNMSESMAAAHRTRYFFLL
2.7
